Quick list: GI50 per entry.
system: NCI-H23; assay: NCI tumour cell line growth inhibition, 48 h
The source made the active and inactive calls. Cut-off read from the data, not from the text of the source: active = GI50 up to about 1.1 µM and inactive = higher.

Worked cases, GI50 given:
Molecule | Measured Metric | Endpoint Value
C=C(C)C(=O)O[C@H]1CC2=C[C@@H](C[C@@]3(C)O[C@@H]3[C@H]3OC(=O)C(=C)[C@@H]31)OC2=O | GI50 | 1.87 µM (inactive)
CCNc1cnc2c(n1)c(=O)n(C)c(=O)n2C | GI50 | > 100 µM (inactive)
COC1=CC(=O)N(C)C(O)C1(C#N)OC1OC(CO)C(O)C(O)C1O (configuration not stated) | GI50 | > 100 µM (inactive)
COC(=O)C1=C(O)C(C(=O)OC)[C@]2(O)[C@@H](C(=O)OC)[C@H]1[C@H](C)[C@@H](c1ccccc1)[C@@H]2C(=O)OC (some centres not stated) | GI50 | 44.4 µM (inactive)
COc1ccc(OC)c(NC(=O)C(=O)C(C(C)=O)c2nc3ccc(Cl)cc3nc2O)c1 (configuration not stated) | GI50 | > 50 µM (inactive)

Determine from records and report GI50 for CC(C)(C)C1CCC2c3c([nH]c4ccccc34)C3C(=O)N(c4cccc([N+](=O)[O-])c4)C(=O)C3C2C1 (configuration not stated)
15.5 µM (inactive)

Determine from records and report GI50 for CCC(C(=O)c1cccs1)C(O)(C(F)(F)F)C(F)(F)F (configuration not stated)
> 100 µM (inactive)

Determine from records and report GI50 for N=C(N)N/N=C/c1c(-c2ccc([N+](=O)[O-])cc2)nc2sccn12
1.71 µM (inactive)

Determine from records and report GI50 for C=C1C[C@@H]2C[C@@H](C)CC(O)[C@]2(CCCN)C1O (some centres not stated)
> 100 µM (inactive)

Determine from records and report GI50 for O=c1ccc2ccc(O)cc2o1
> 100 µM (inactive)

Hello, the source for this data is ChEMBL document CHEMBL1201862, in case you need it.
